# System: BT-549 breast
# ASSAY_COMMENT: NCI-60 one-dose screen, 48 h (100 = growth as untreated, 0 = no growth, -100 = all killed)
# CONDITION_CONTEXT: 10 µM unless noted
Compounds without any hit were thinned out: in the full panel of roughly 83,000, 20% have a hit. The source made the active and inactive calls. How the source made its calls: active means growth percent below 10; inactive means the rest.
MEASURE: growth

Consider the worked cases shown below.
COMPOUND	ASSAY_TARGET	growth
O=[N+]([O-])c1cccc(-c2nc3sccn3c2-c2ccnc(NCCCNS(=O)(=O)c3cccc(F)c3)n2)c1	BT-549 breast	-16.8% (active)
COc1cccc(-n2cc(-c3nc(Nc4cc(C)[nH]n4)c4ccccc4n3)nn2)c1	BT-549 breast	49.3% (inactive)
CCCCOc1ccc(NC(=O)n2nc(NC(C)=O)c3cc(NC(C)=O)ccc32)cc1	BT-549 breast	81% (inactive)
CCOC(=O)/C=C/C(=O)[C@H](CC(C)C)NC(=O)[C@H](Cc1ccccc1)NC(=O)OCc1ccccc1	BT-549 breast	69.2% (inactive)
COc1ccc(CN2C(=O)/C(=C\c3cc(OC)c(OC)c(OC)c3)c3cc(OC)ccc32)cc1	BT-549 breast	27.1% (inactive)
COc1ccc(C(=O)c2sc3nc4c(cc3c2N)CCCC4)cc1OC	BT-549 breast	24.1% (inactive)
COc1ccc(-c2cn3c(ccc4ccccc43)n2)cc1	BT-549 breast	97.8% (inactive)
Nc1nc2c(c3ncccc13)C(c1cccc(Br)c1)Cc1ncccc1-2 (stereo not given)	BT-549 breast	24.8% (inactive)
CCN(CC)CCCC(C)Nc1ccnc2c(OC)cccc12 (stereo not given)	BT-549 breast	118% (inactive)
COc1cc(-c2cnc3nonc3n2)c(OC)c2c1OCO2	BT-549 breast	105% (inactive)

Data request: Identify measured growth associated with CCC(c1ccc(O)cc1)C(CC)c1ccc(O)c(F)c1 (stereo not given)
Data returned: 92.9% (inactive)

Data request: Identify measured growth associated with C=C(C[n+]1ccccc1)[C@@H]1CC[C@]2(C(=O)OC)CC[C@]3(C)[C@H](CC[C@@H]4[C@@]5(C)CC[C@H](O)C(C)(C)[C@@H]5CC[C@]43C)[C@@H]12
Data returned: 99% (inactive)

Data request: Identify measured growth associated with Nc1cc(-c2nc3sccn3c2-c2ccnc(NCCCNS(=O)(=O)c3ccc(F)cc3)n2)ccc1F
Data returned: 52.2% (inactive)

Data request: Identify measured growth associated with Cn1cc(-c2ccc(-c3cn(C)c4ncccc34)[nH]2)c2cccnc21
Data returned: -12% (active)

Data request: Identify measured growth associated with O=C(O)C(O)C(O)C(=O)O.[NH-]C1CCCCC1[NH-].[Pt+2] (stereo not given)
Data returned: 108% (inactive)

###

# System: LOX IMVI melanoma
# ASSAY_COMMENT: NCI-60 one-dose screen, 48 h (100 = growth as untreated, 0 = no growth, -100 = all killed)
# CONDITION_CONTEXT: 10 µM unless noted
# Protocol: Growth inhibition of the LOX IMVI human tumor cell line is measured as a screen for anti-cancer activity. Cells are grown in 96 well plates and exposed to the test compound for 48 hours. Compounds are tested at a single concentration, which is 10^-5 M for most compounds. The reported endpoint is percent growth (GI% or GIPRCNT), where numbers from 0 - 100% represent growth inhibition, and numbers from -100% - 0 represent cell death. For example, a value of 40 represents 60% growth inhibition. […]
This is part of a sample that, as a whole, favours compounds with a hit. Of some 83,000 tested, about 20% had one in any assay.
# growth values compiled below
Your answer is read as %, so omit the unit and give the number.

COMPOUND	ASSAY_TARGET	MEASURE	OUTPUT_UNIT	ASSAY_RESULT
c1ccc2c(Nc3cccc4ccccc34)cccc2c1	LOX IMVI melanoma	growth	%	52.6
Cn1cc(-c2nc(-c3c[nH]c4ccccc34)cs2)c2cccnc21	LOX IMVI melanoma	growth	%	39.4
CC(=O)Oc1cc2cnc3c4cc(OC(C)=O)c(OC(C)=O)cc4ccc3c2cc1OC(C)=O	LOX IMVI melanoma	growth	%	10.6

Data request: Identify measured growth associated with CC(=O)OCC1OC(OC2=C(CC=C(Cl)Cl)C(=O)c3ccccc3C2=O)C(OC(C)=O)C(OC(C)=O)C1OC(C)=O (stereo not given)
Data returned: 39.9

Data request: Identify measured growth associated with C/C=C/C(N)=O
Data returned: 99.3

Data request: Identify measured growth associated with COc1cc(-c2nc3ccccc3s2)ccc1NC(=O)COc1ccc(Cl)cc1
Data returned: 64.7

Data request: Identify measured growth associated with CCN(CC)Cc1cc(Nc2c3ccccc3nc3cc(Cl)ccc23)ccc1O
Data returned: -86.5

Data request: Identify measured growth associated with COc1ccc(/C=C2\N=C3Sc4cc(Cl)ccc4C(=O)N3C2=O)cc1
Data returned: 98.8

Data request: Identify measured growth associated with CN1Cc2c(cc(CN3CCCCC3)n2C)C(c2ccc(Br)cc2)C1 (stereo not given)
Data returned: 68.2

Data request: Identify measured growth associated with CCC(=O)Oc1ccc(/C(=C(\C)c2ccccc2)c2ccc(OCCN(CC)CC)cc2)cc1
Data returned: 87.8
